B1: KCNAB2 (parent)
chain: SSIIHEIDSILGNKPYSKKDYRS

variants of: B1; experiment: protein stability index of a GFP-peptide fusion (GPS, HEK-293T) (PSI 1-6); higher = more stable; conditions: c terminus: native;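 note: lentivirally expressed fusions sorted by FACS into six bins by GFP to DsRed ratio, PSI derived from sequencing read proportions per bin multiplied by bin number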
MEASURED QUANTITY: protein stability index
Form: value (number only, do not type unit).

K19Y: 2.45
K14R: 3.09

Ask: # query: protein stability index of entry "I10C"
Reply: 3.79

Ask: # query: protein stability index of entry "H5P"
Reply: 3.09

Ask: # query: protein stability index of entry "I4N"
Reply: 4.51
